B1: SETD8 (parent)
chain: GKQAPRKKAQGKTQQNRKLTDFYP

- Variants of: B1
- assay-name: protein stability index of a GFP-peptide fusion (GPS, HEK-293T) (PSI 1-6); higher = more stable;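 further: lentivirally expressed fusions sorted by FACS into six bins by GFP to DsRed ratio, PSI derived from sequencing read proportions per bin multiplied by bin number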
- measurement-context: c terminus: a fixed tail appended
Field: class. Source value: protein stability index. Ranges: low-valued = under 3, mid-valued = from 3 up to 4, high-valued = 4 and over

Check out these entries, answers already filled in.
| sequence-variant | qualitative-label |
| --- | --- |
| K7F | low-valued |
| D21M | mid-valued |
| K18C | low-valued |
| G11N | mid-valued |
| T20M | high-valued |
| A4Q | low-valued |
| K8C | mid-valued |
| D21N | mid-valued |

[Q] Class (by measured protein stability index) for F22K
[A] high-valued

[Q] Tag the class for K7T
[A] low-valued

[Q] Which protein stability index category applies to F22L here?
[A] high-valued

[Q] For A4R , which protein stability index bin applies?
[A] mid-valued

[Q] Class label required: Q3F
[A] low-valued

[Q] Place this variant in its band: T13F
[A] low-valued

[Q] Could you tell me which band F22N belongs to?
[A] high-valued
